B1: glmS ribozyme (parent)
chain: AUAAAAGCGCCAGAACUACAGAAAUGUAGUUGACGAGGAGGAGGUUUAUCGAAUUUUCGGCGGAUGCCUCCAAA

variants of: B1; assay: self-cleavage kobs at 640 uM GlcN6P; higher = faster cleavage; RNA array; details: with glucosamine-6-phosphate
Variants at the floor of the assay were thinned out.
Below, each of the variants is paired with its reported self-cleavage kobs at 640 uM GlcN6P value.
Numeric answer only, unit s⁻¹ assumed.

Recorded results for 6 variants are shown here.
| mutation label | reading unit | quantitative readout |
| --- | --- | --- |
| C58U C61G G66A C67A | s⁻¹ | 0.000108 |
| A33C | s⁻¹ | 9.27e-05 |
| C58G C61G | s⁻¹ | 5.63e-05 |
| U55C C58A | s⁻¹ | 9.55e-05 |
| A42U U69C C70A | s⁻¹ | 0.0004 |
| U46A U69A | s⁻¹ | 5.02e-05 |

Record request: self-cleavage kobs at 640 uM GlcN6P value, item U30G A42U C67G
8.82e-05

Record request: self-cleavage kobs at 640 uM GlcN6P value, item A42G U54G
0.0108

Record request: self-cleavage kobs at 640 uM GlcN6P value, item C50G G62U G66C C70A
0.000118
